# studySystem: PTP1B (human, recombinant) (Homo sapiens)
# Sequence (P18031 whole entry): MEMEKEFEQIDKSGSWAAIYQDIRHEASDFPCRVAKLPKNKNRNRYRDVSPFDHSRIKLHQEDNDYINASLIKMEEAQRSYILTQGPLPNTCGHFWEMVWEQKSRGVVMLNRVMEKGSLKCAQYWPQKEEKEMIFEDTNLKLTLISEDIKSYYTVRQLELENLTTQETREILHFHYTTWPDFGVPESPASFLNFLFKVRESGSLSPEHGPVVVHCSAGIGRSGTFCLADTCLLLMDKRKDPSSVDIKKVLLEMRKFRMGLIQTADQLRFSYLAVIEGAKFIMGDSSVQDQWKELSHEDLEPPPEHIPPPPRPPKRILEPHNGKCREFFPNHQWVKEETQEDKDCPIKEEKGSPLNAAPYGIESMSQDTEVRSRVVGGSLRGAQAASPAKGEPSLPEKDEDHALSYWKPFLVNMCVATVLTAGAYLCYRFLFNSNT
# testMethodNotes: PTP1B enzyme assay (p-NPP substrate)
# assayConditions: mean ± SD of three replicates; 4 mM p-NPP, 37 °C, 30 min
Assign labels as follows, please: T for IC50 below 7 µM; F for IC50 equal to or exceeding 7 µM.

IN: Strictly below 7 µM: is that where IC50 of CC(CO)c1cc2c(c(O)c1O)[C@@]1(C)CCCC(C)(C)C1CC2=O (some centres unmarked) sits?
OUT: T

IN: Now the compound CC1(C)CC[C@]2(C(=O)O)CC[C@]3(C)C(=CCC4[C@@]5(C)C[C@@H](O)[C@@H](O)[C@](C)(CO)C5CC[C@]43C)C2C1 (some centres unmarked)
OUT: F

IN: Now the compound CC1(C)CC[C@]2(C(=O)O)CC[C@]3(C)C(=CCC4[C@@]5(C)CCC(O[C@@H]6OC[C@H](O)[C@H](O)[C@H]6O)C(C)(C)C5CC[C@]43C)C2C1 (some centres unmarked)
OUT: T

Others:
IN: Strictly below 7 µM: is that where IC50 of CC1=C(C)C2=CC(=O)c3c(O)c4c(c(O)c3[C@@]2(C)CC1)O[C@@H](C)C4 sits?
OUT: T

IN: Now the compound CC1(C)CC[C@]2(C(=O)O)CC[C@]3(C)C(=CCC4[C@@]5(C)CCC(O[C@@H]6OC[C@H](O[C@@H]7O[C@H](CO)[C@@H](O)[C@H](O)[C@H]7O)[C@H](O)[C@H]6O)C(C)(C)C5CC[C@]43C)C2C1 (some centres unmarked)
OUT: F
